assay: Plasma pharmacokinetics of BI 187004 after single oral doses (LC–MS/MS); conditions: male, human, plasma, po, 360 mg, BI 187004 plasma concentrations, Mean, 360 mg single oral, planned time 96 h
measurement_kind: concentration at 96 h (nM)
Give the value, in units of nM, as a plain number.

Prompt: Reported concentration at 96 h, compound N#Cc1ccc2c(c1)[C@H]1CCCN(C(=O)c3ccc4[nH]cnc4c3)[C@H]1C2 : ____
Completion: 95

---

test: Plasma pharmacokinetics of BI 187004 after single oral doses (LC–MS/MS); settings: male, human, plasma, po, 2.5 mg, Plasma concentration Median, 2.5 mg single oral; 12 h
measurement_kind: concentration at 12 h
Number first, unit second.

Prompt: What does the data say about its concentration at 12 h? Entry: N#Cc1ccc2c(c1)[C@H]1CCCN(C(=O)c3ccc4[nH]cnc4c3)[C@H]1C2
Completion: 4.43 nM

---

assay: Plasma pharmacokinetics of BI 187004 after single oral doses (LC–MS/MS); details: male, human, plasma, po, 20 mg, BI 187004 plasma concentrations, 20 mg single oral, planned time 12 h, Max
measurement_kind: concentration at 12 h
Just the number plus its unit, please.

Prompt: Entry N#Cc1ccc2c(c1)[C@H]1CCCN(C(=O)c3ccc4[nH]cnc4c3)[C@H]1C2 has what concentration at 12 h?
Completion: 457 nM

---

assay: Plasma pharmacokinetics of BI 187004 after single oral doses (LC–MS/MS); conditions: male, human, plasma, po, 160 mg, BI 187004 plasma concentrations, 160 mg single oral, planned time 2 h, individual subjects
measurement_kind: concentration at 2 h

Prompt: If you can, please state the reported concentration at 2 h value of N#Cc1ccc2c(c1)[C@H]1CCCN(C(=O)c3ccc4[nH]cnc4c3)[C@H]1C2 .
Completion: 7.23 µM

---

experiment: Plasma pharmacokinetics of BI 187004 after single oral doses (LC–MS/MS); details: male, human, plasma, po, 2.5 mg, Plasma concentration gMean, 2.5 mg single oral; 24 h
measurement_kind: concentration at 24 h (nM)
Note: unit nM is implicit; provide only the numeric part.

Prompt: Give the measured concentration at 24 h of N#Cc1ccc2c(c1)[C@H]1CCCN(C(=O)c3ccc4[nH]cnc4c3)[C@H]1C2 .
Completion: 4.54

---

test: Plasma pharmacokinetics of BI 187004 after single oral doses (LC–MS/MS); conditions: male, human, plasma, po, 80 mg, BI 187004 plasma concentrations, 80 mg single oral, planned time 2.5 h, Min
measurement_kind: concentration at 2.5 h

Prompt: Recorded concentration at 2.5 h of N#Cc1ccc2c(c1)[C@H]1CCCN(C(=O)c3ccc4[nH]cnc4c3)[C@H]1C2 [BI 187004] , please.
Completion: 1200 nM

---

assay: Plasma pharmacokinetics of BI 187004 after single oral doses (LC–MS/MS); conditions: male, human, plasma, po, 240 mg, BI 187004 plasma concentrations, gMean, 240 mg single oral, planned time 4 h
measurement_kind: concentration at 4 h (µM)
Give just the number in µM; leave the unit off.

Prompt: Can you share its concentration at 4 h? I mean this compound: N#Cc1ccc2c(c1)[C@H]1CCCN(C(=O)c3ccc4[nH]cnc4c3)[C@H]1C2
Completion: 4.28

---

assay: Plasma pharmacokinetics of BI 187004 after single oral doses (LC–MS/MS); details: male, human, plasma, po, 5 mg, Plasma concentration gMean, 5 mg single oral; 5 h
measurement_kind: concentration at 5 h (nM)
Respond with the bare value in nM.

Prompt: Requested read-out: concentration at 5 h. Entry: N#Cc1ccc2c(c1)[C@H]1CCCN(C(=O)c3ccc4[nH]cnc4c3)[C@H]1C2
Completion: 96

---

test: Plasma pharmacokinetics of BI 187004 after single oral doses (LC–MS/MS); details: male, human, plasma, po, 40 mg, BI 187004 plasma concentrations, 40 mg single oral, planned time 3 h, Median
measurement_kind: concentration at 3 h (nM)
Kindly provide the numeric value in nM only, without the unit symbol.

Prompt: Item under review: N#Cc1ccc2c(c1)[C@H]1CCCN(C(=O)c3ccc4[nH]cnc4c3)[C@H]1C2 . Reported concentration at 3 h?
Completion: 1560

---

test: Plasma pharmacokinetics of BI 187004 after single oral doses (LC–MS/MS); settings: male, human, plasma, po, 240 mg, BI 187004 plasma concentrations, Max, 240 mg single oral, planned time 8 h
measurement_kind: concentration at 8 h (µM)
Your answer is read as µM, so omit the unit and give the number.

Prompt: For N#Cc1ccc2c(c1)[C@H]1CCCN(C(=O)c3ccc4[nH]cnc4c3)[C@H]1C2 [BI 187004] , what is its reported concentration at 8 h?
Completion: 5.38

---

assay: Plasma pharmacokinetics of BI 187004 after single oral doses (LC–MS/MS); conditions: male, human, plasma, po, 40 mg, BI 187004 plasma concentrations, 40 mg single oral, planned time 36 h, Min
measurement_kind: concentration at 36 h (nM)
Please state the figure in nM; there is no need to write the unit.

Prompt: Reported concentration at 36 h, molecule N#Cc1ccc2c(c1)[C@H]1CCCN(C(=O)c3ccc4[nH]cnc4c3)[C@H]1C2 : ____
Completion: 51.5

---

assay: Plasma pharmacokinetics of BI 187004 after single oral doses (LC–MS/MS); settings: male, human, plasma, po, 10 mg, Plasma concentration gMean, 10 mg single oral; 36 h
measurement_kind: concentration at 36 h (nM)
Enter your answer as a number in nM; do not include the unit.

Prompt: Given N#Cc1ccc2c(c1)[C@H]1CCCN(C(=O)c3ccc4[nH]cnc4c3)[C@H]1C2 , state its recorded concentration at 36 h.
Completion: 26.3

---

assay: Plasma pharmacokinetics of BI 187004 after single oral doses (LC–MS/MS); conditions: male, human, plasma, po, 240 mg, BI 187004 plasma concentrations, gMean, 240 mg single oral, planned time 10 h
measurement_kind: concentration at 10 h (nM)
Give the value, in units of nM, as a plain number.

Prompt: Entry under review: N#Cc1ccc2c(c1)[C@H]1CCCN(C(=O)c3ccc4[nH]cnc4c3)[C@H]1C2 . Reported concentration at 10 h?
Completion: 2600

---

assay: Plasma pharmacokinetics of BI 187004 after single oral doses (LC–MS/MS); conditions: male, human, plasma, po, 240 mg, BI 187004 plasma concentrations, Min, 240 mg single oral, planned time 3 h
measurement_kind: concentration at 3 h (nM)
Write down the numeric answer in nM and omit the unit.

Prompt: concentration at 3 h for N#Cc1ccc2c(c1)[C@H]1CCCN(C(=O)c3ccc4[nH]cnc4c3)[C@H]1C2 ?
Completion: 388

---

assay: Plasma pharmacokinetics of BI 187004 after single oral doses (LC–MS/MS); conditions: male, human, plasma, po, 10 mg, Plasma concentration Mean, 10 mg single oral; 96 h
measurement_kind: concentration at 96 h (nM)
API: value field is a number in nM; no unit string.

Prompt: So what's the measured concentration at 96 h for this one? N#Cc1ccc2c(c1)[C@H]1CCCN(C(=O)c3ccc4[nH]cnc4c3)[C@H]1C2 [BI 187004]
Completion: 5.72

---

experiment: Plasma pharmacokinetics of BI 187004 after single oral doses (LC–MS/MS); conditions: male, human, plasma, po, 5 mg, Plasma concentration Median, 5 mg single oral; 5 h
measurement_kind: concentration at 5 h

Prompt: Requested read-out: concentration at 5 h. Entry: N#Cc1ccc2c(c1)[C@H]1CCCN(C(=O)c3ccc4[nH]cnc4c3)[C@H]1C2 [BI 187004]
Completion: 98.1 nM

---

test: Plasma pharmacokinetics of BI 187004 after single oral doses (LC–MS/MS); conditions: male, human, plasma, po, 80 mg, BI 187004 plasma concentrations, 80 mg single oral, planned time 4 h, Mean
measurement_kind: concentration at 4 h (nM)
Please reply with the bare figure in nM and do not write the unit itself.

Prompt: I have this molecule here, N#Cc1ccc2c(c1)[C@H]1CCCN(C(=O)c3ccc4[nH]cnc4c3)[C@H]1C2 , and I need its recorded concentration at 4 h.
Completion: 2200

---

experiment: Plasma pharmacokinetics of BI 187004 after single oral doses (LC–MS/MS); settings: male, human, plasma, po, 40 mg, BI 187004 plasma concentrations, 40 mg single oral, planned time 3 h, Mean
measurement_kind: concentration at 3 h (nM)
Give the quantity in nM, number only.

Prompt: For N#Cc1ccc2c(c1)[C@H]1CCCN(C(=O)c3ccc4[nH]cnc4c3)[C@H]1C2 , what is its reported concentration at 3 h?
Completion: 1530

---

assay: Plasma pharmacokinetics of BI 187004 after single oral doses (LC–MS/MS); settings: male, human, plasma, po, 40 mg, BI 187004 plasma concentrations, 40 mg single oral, planned time 96 h, Mean
measurement_kind: concentration at 96 h (nM)
Give a bare numeral; the unit nM is implied.

Prompt: Fill in the blank: the reported concentration at 96 h of N#Cc1ccc2c(c1)[C@H]1CCCN(C(=O)c3ccc4[nH]cnc4c3)[C@H]1C2 [BI 187004] is ____.
Completion: 15.5

// data source = paper PMC8364686
